Experiment: in vitro
Assay type: cell-based, human
Settings: human; 24 h exposure, ATP assay, 5% FBS; read-out: IC50 cytotoxicity Huh-7 cells
assay_endpoint: IC50 at 24 h (µM)
The response must be a number in µM with no trailing unit.

INSERT INTO results (compound, endpoint_value) VALUES
  ('C=C(C)[C@@H]1CC[C@]2(COC(=O)c3ccccc3NC(C)=O)CC[C@]3(C)C(CCC4[C@@]5(C)CC[C@H](O)C(C)(C)C5CC[C@]43C)C12 (some centres unmarked)', 56);

Which value of IC50 at 24 h has been reported for CCn1c(=O)n2n(c1=O)C1(C(C)C)CCC3(COC(C)=O)CCC4(C)C(=C31)C2CC1C2(C)CCC(OC(C)=O)C(C)(C)C2CCC14C (centres unmarked) in the records?
16

----------
inhibition at 50 µM: recorded values
Tested on: S. aureus ATCC 25923
Assay: Broth microdilution assay, S. aureus
Assay type: cell-based, Staphylococcus aureus
Details: Staphylococcus aureus, ATCC25923, 24 h, 50 µM, 24 h, inhibition of growth, mean ± SD; read-out: Inhibitory effect (%) S. aureus ATCC 25923
Express the result in % but write the number alone.

Example cases with answers are listed next.
INSERT INTO assay_data (compound, endpoint_value) VALUES
  ('C=C(C)[C@@H]1CC[C@]2(C(=O)O)CC[C@]3(C)[C@H](CC[C@@H]4[C@@]5(C)CC[C@H](O)C(C)(C)[C@@H]5CC[C@]43C)[C@@H]12', 22.8),
  ('CCn1c(=O)n2n(c1=O)C1(C(C)C)CCC3(COC(C)=O)CCC4(C)C(=C31)C2CC1C2(C)CCC(OC(C)=O)C(C)(C)C2CCC14C (centres unmarked)', 2.9),
  ('C=C(C)[C@@H]1CC[C@]2(CO)CC[C@]3(C)[C@H](CC[C@@H]4[C@@]5(C)CC[C@H](O)C(C)(C)[C@@H]5CC[C@]43C)[C@@H]12', -6.7);

Which inhibition at 50 µM value is on record for C=C(C)[C@@H]1CC[C@]2(C(=O)O)CC[C@]3(C)C(CCC4[C@@]5(C)CCC(=O)C(C)(C)C5CC[C@]43C)C12 (some centres unmarked) ?
51

Return reported inhibition at 50 µM; argument: CC(C)[C@@H]1CC[C@]2(C(=O)O)CC[C@]3(C)[C@H](CC[C@@H]4[C@@]5(C)CCC(=O)C(C)(C)[C@@H]5CC[C@]43C)[C@@H]12 [Compound 24, dihydrobetulonic acid]
15.1

----------
Quick reference for cytotoxicity at 24 h, 50 µM among some molecules
Experiment: in vitro
Assay type: cell-based, human
Conditions: human, Cytotoxicity (%) Huh-7 cells
Give just the numeric value; % need not be written.

Consider the following illustrative entries.
INSERT INTO measurements (molecule, assay_endpoint, endpoint_value) VALUES
  ('C=C(C)[C@@H]1CC[C@]2(C(=O)O)CC[C@]3(C)C(CCC4[C@@]5(C)CCC(=O)C(C)(C)C5CC[C@]43C)C12 (stereo partly drawn)', 'cytotoxicity at 24 h, 50 µM', 18),
  ('CC(C)[C@@H]1CC[C@]2(C(=O)O)CC[C@]3(C)[C@H](CC[C@@H]4[C@@]5(C)CCC(=O)C(C)(C)[C@@H]5CC[C@]43C)[C@@H]12 [Compound 24, dihydrobetulonic acid]', 'cytotoxicity at 24 h, 50 µM', 13);

We next turn to a different molecule, shown below.
Name the recorded cytotoxicity at 24 h, 50 µM for C=C(C)[C@@H]1CC[C@]2(COC(=O)COc3cc(C(C)C)ccc3C)CC[C@]3(C)[C@H](CC[C@@H]4[C@@]5(C)CC[C@H](O)C(C)(C)[C@@H]5CC[C@]43C)[C@@H]12 [Compound 4, betulinyl 28-carboxymethoxycarvacrolate] .
-4.6
